B1: library; a variant is named by its letters at N, in order (parent)
chain: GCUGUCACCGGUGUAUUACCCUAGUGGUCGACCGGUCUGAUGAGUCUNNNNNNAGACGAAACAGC

# Variants of: B1
# testProtocol: FACS-Seq fitted mean relative fluorescence mCherry/BFP with ligand (log10 relative fluorescence); ligand: hypoxanthine (xanthine aptamer); ligand concentration (+) FACS-Seq: 5 mM; higher = higher reporter protein expression
# measurementConditions: HEK293T, ligand present: yes
Rule: Satisfied for FACS-Seq fitted mean (log10) not less than 0.4, Not satisfied for anything less.

Please tell me: is the variant "GACCAA" at or over 0.4 in terms of FACS-Seq fitted mean (log10)?
Not satisfied

Dear colleague, could you confirm whether "GGUGUA" has FACS-Seq fitted mean (log10) at or above 0.4?
Not satisfied

Is FACS-Seq fitted mean (log10) for "AUGUAU" at or above 0.4?
Not satisfied

Hello, I need to know if "ACUCGG" has measured FACS-Seq fitted mean (log10) not below 0.4. Thanks!
Satisfied

# bool: FACS-Seq fitted mean (log10) of "AGCUAC" >= 0.4
Not satisfied

Entry "AGGGGG" : is its FACS-Seq fitted mean (log10) no less than 0.4?
Satisfied

Does the variant "CGAUAG" have recorded FACS-Seq fitted mean (log10) that is 0.4 or more?
Satisfied

Please tell me: is the variant "AAGUCA" at or over 0.4 in terms of FACS-Seq fitted mean (log10)?
Satisfied

Decide: is the reported value of FACS-Seq fitted mean (log10) for "UCAAGU" equal to or greater than 0.4?
Satisfied

Quick check, FACS-Seq fitted mean (log10) >= 0.4? "UAAAAC"
Satisfied

Please indicate if the recorded FACS-Seq fitted mean (log10) for "CUAAGC" meets or exceeds 0.4.
Not satisfied

Hi team, for "GUAGCU" , is the recorded FACS-Seq fitted mean (log10) at or above 0.4?
Not satisfied

Is it the case that "ACAUAA" has FACS-Seq fitted mean (log10) reaching or exceeding 0.4?
Satisfied

Threshold query (FACS-Seq fitted mean (log10) >= 0.4) on "GAAAGC"
Satisfied

Given "AGUAGA" , state whether its FACS-Seq fitted mean (log10) is at least 0.4.
Satisfied

Could you please find out whether "AUCGAC" has FACS-Seq fitted mean (log10) that meets 0.4 or exceeds it?
Satisfied

Has "GACAUG" a recorded FACS-Seq fitted mean (log10) greater than or equal to 0.4?
Satisfied

Say whether "AGGGCG" shows FACS-Seq fitted mean (log10) of 0.4 or more.
Satisfied

Is FACS-Seq fitted mean (log10) at least 0.4? Consider "CUUAUA"
Satisfied

Is FACS-Seq fitted mean (log10) for "AGACGG" at or above 0.4?
Satisfied

Hi team, for "AGCAUU" , is the recorded FACS-Seq fitted mean (log10) at or above 0.4?
Not satisfied

For this variant, is measured FACS-Seq fitted mean (log10) 0.4 or higher? "AACCGG"
Satisfied
